# Test system: Adult Boophilus microplus
# experimental-details: Topical application test on fully engorged adult Boophilus microplus ticks; overall reduction in anticipated reproduction (eggs laid and hatching)
# Format: in vivo
# experimental-setup: Rhipicephalus microplus, 4 μg/tick, read-out: In Vitro Activity (topical application) vs. Adult Boophilus microplus % Effect
# Protocol: In one test, five freshly collected, fully engorged Boophilus microplus adult ticks are used for each acaricidal compound. […] The percentage effect is calculated as the overall reduction in the anticipated reproduction of the ticks using the weight of eggs laid and the percentage of eggs hatching. […] The activity of many of the compounds of the Examples detailed hereinafter against the tick Boophilus microplus has been determined.
I would appreciate it if you labelled entries yes when inhibition at 4 µg/tick is 70% or higher, otherwise no.

molecule	classification
CCCCCCCCCCCCCCCC[N+]1=C2SC=C(C)N2CCC1 [Example 19]	no
CCCCCCCCCCCCCCCCC[N+]1=C2SC(C)=C(c3ccccc3)N2CC1 [Example 44]	yes
CCCCCCCCCCCCCCCCC[N+]1=C2SC(C)=C(c3ccccc3)N2CCC1 [Example 15]	yes
CCCCCCCCCCCCCCCC[N+]1=C2SC=C(c3ccccc3)N2CCCC1 [Example 21]	yes
CCCCCCCCCCCCCCCC[N+]1=C2SC(C)=C(c3ccccc3)N2CC1 [Example 42]	yes
CCCCCCCCCCCCCCCCC[N+]1=C2SC=C(c3ccccc3)N2CCCC1 [Example 32]	yes
CCCCCCCCCCCCCC[N+]1=C2SC=C(C)N2CCC1 [Example 5]	no
CCCCCCCCCCCCCCC[N+]1=C2SC(C)=C(c3ccccc3)N2CC1 [Example 43]	yes
CCCCCCCCCCCCCCCCCC[N+]1=C2SC=C(C)N2CCCC1 [Example 25]	yes
CCCCCCCCCCCCCC[N+]1=C2SC(C)=C(CC)N2CCC1 [Example 4]	yes
CCCCCCCCCCCCCCCC[N+]1=C2SC(C)=C(c3ccccc3)N2CCCC1 [Example 23]	yes
CCCCCCCCCCCCCCCCC[N+]1=C2SC=C(C)N2CCCC1 [Example 30]	no
CCCCCCCCCCCCCCCCCC[N+]1=C2SC(C)=C(c3ccccc3)N2CCC1 [Example 12]	no
CCCCCCCCCCCCCCC[N+]1=C2SC=C(c3ccccc3)N2CCCC1 [Example 26]	no

---

# System: Adult Boophilus microplus
# experimental-details: Topical application test on fully engorged adult Boophilus microplus ticks; overall reduction in anticipated reproduction (eggs laid and hatching)
# Type: in vivo
# experimental-setup: Rhipicephalus microplus, 4 μg/tick, read-out: In Vitro Activity (topical application) vs. Adult Boophilus microplus % Effect
I would appreciate it if you labelled entries satisfied when inhibition at 4 µg/tick is 90% or higher, otherwise not satisfied.

molecule	classification
CCCCCCCCCCCCCC[N+]1=C2SC=C(C)N2CCCC1	not satisfied
CCCCCCCCCCCCCCCC[N+]1=C2SC(C)=C(CC)N2CCC1	satisfied
CCCCCCCCCCCCCC[N+]1=C2SC(C)=C(c3ccccc3)N2CCC1	satisfied
CCCCCCCCCCCCCCCCC[N+]1=C2SC=C(c3ccccc3)N2CCC1	not satisfied

---

# System: Adult Boophilus microplus
# experimental-details: Topical application test on fully engorged adult Boophilus microplus ticks; overall reduction in anticipated reproduction (eggs laid and hatching)
# Format: in vivo
# experimental-setup: Rhipicephalus microplus, 4 μg/tick, read-out: In Vitro Activity (topical application) vs. Adult Boophilus microplus % Effect
experimental-endpoint: inhibition at 4 µg/tick (%)

compound	readout-number
CCCCCCCCCCCCCCCC[N+]1=C2SC=C(C)N2CCCC1 [Example 20]	99
CCCCCCCCCCCCCCCC[N+]1=C2SC=C(c3ccc(F)cc3)N2CCCC1 [Example 41]	16
CCCCCCCCCCCCCCC[N+]1=C2SC=C(C)N2CCCC1 [Example 24]	97
CCCCCCCCCCCCCCCC[N+]1=C2SC(C)=C(c3ccccc3)N2CCC1 [Example 7]	99
CCCCCCCCCCCCCCC[N+]1=C2SC=C(c3ccccc3)N2CCC1 [Example 2]	77
CCCCCCCCCCCCCC[N+]1=C2SC=C(c3ccccc3)N2CCCC1 [Example 29]	55
CCCCCCCCCCCCC[N+]1=C2SC=C(C)N2CCCC1 [Example 27]	63
CCCCCCCCCCCCC[N+]1=C2SC=C(c3ccccc3)N2CCCC1 [Example 31]	0
CCCCCCCCCCCCCCC[N+]1=C2SC(C)=C(c3ccccc3)N2CCC1 [Example 11]	100

Reference for the values: patent US4162253A
